# settings: buffer; pH 7.4; 200.0 µM
Would you mind labelling by solubility kinetic? At or over 10 µg/mL is T, under is F.

COc1ccc(C(=O)N2CCCC(C(=O)O)C2)c2ccccc12 (centres undefined) = T
O=S1(=O)CCC(=Nc2ccc(Cl)cc2)c2ccsc21 = T
CN1C(=O)CN=C(c2ccc(Cl)cc2)c2cc(Cl)ccc21 = T
CC1(C)Cc2c(C#N)c(N3CCNCC3)nc(-c3ccco3)c2CS1 = T
Cc1nc(OCC(C)C)c2sc3nc4c(cc3c2n1)COC(C)(C)C4 = T
Cc1cc(C)cc(NC(=O)CCc2ccc(C)o2)c1 = T

Entry COc1ccc(Nc2nc(NCC3CCCO3)nc(N)c2[N+](=O)[O-])cc1 (centres undefined) : is its solubility kinetic no less than 10 µg/mL?
F

Entry Cc1ccc(NC(=O)c2ccc(S(=O)(=O)N3CCOCC3)cc2)c(C)c1 : is its solubility kinetic no less than 10 µg/mL?
F

Entry O=C(Nc1ncc([N+](=O)[O-])s1)C1COc2ccccc2O1 (centres undefined) : is its solubility kinetic no less than 10 µg/mL?
T

Entry CC(C)(C)C(=O)Nc1cc2c3c(c1)CC(=O)N3CCC2 : is its solubility kinetic no less than 10 µg/mL?
T

Entry Cc1ccc(N2C(=O)[C@@H]3C(c4cccnc4)=NO[C@@H]3C2=O)c(C)c1 : is its solubility kinetic no less than 10 µg/mL?
T

Entry COc1ccc(C)cc1NC(=O)C1CC(=O)N(CCc2ccccc2)C1 (centres undefined) : is its solubility kinetic no less than 10 µg/mL?
T

Entry CCn1c(/C=C/c2ccc(O)c(O)c2)nc2ccccc2c1=O : is its solubility kinetic no less than 10 µg/mL?
T

Entry COc1ccccc1C1N=C(c2ccccc2C)NO1 (centres undefined) : is its solubility kinetic no less than 10 µg/mL?
T

Entry CCc1ccc(S(=O)(=O)NCc2cccnc2)cc1 : is its solubility kinetic no less than 10 µg/mL?
T

Entry Cc1ccc2nc(N3CC(C)OC(C)C3)nc(-c3ccccc3)c2c1 (centres undefined) : is its solubility kinetic no less than 10 µg/mL?
F

Entry COc1ccc(CCC(=O)Nc2ccc(C(=O)c3ccncc3)cc2)cc1 : is its solubility kinetic no less than 10 µg/mL?
F

Entry O=C(NCC1CCCO1)c1ccc(Br)s1 (centres undefined) : is its solubility kinetic no less than 10 µg/mL?
T

Entry CC(CC(=O)O)CC(=O)Nc1cccc([N+](=O)[O-])c1 (centres undefined) : is its solubility kinetic no less than 10 µg/mL?
T

Entry Cc1ccc(NC(=O)COC(=O)C2CCC2)cc1S(=O)(=O)N1CCOCC1 : is its solubility kinetic no less than 10 µg/mL?
T

Entry O=C(NC1CCCCC1)C1CCC(=O)N(C2CC2)C1 (centres undefined) : is its solubility kinetic no less than 10 µg/mL?
T

Entry O=C(COc1ccccc1[N+](=O)[O-])NCCC1=CCCCC1 : is its solubility kinetic no less than 10 µg/mL?
T

Entry CN(C(=O)COC(=O)c1ccc(Cl)nc1)C1CCS(=O)(=O)C1 (centres undefined) : is its solubility kinetic no less than 10 µg/mL?
T

Entry Cc1nc2c3cc(Cl)ccc3n(CCN3CCOCC3)c2s1 : is its solubility kinetic no less than 10 µg/mL?
F
